Tested on: VZV strain Ellen
Test: VZV Antiviral (ELISA) assay
Type: cell-based
Details: VZV strain Ellen in HFF cells
Quantity: IC50 (ug/ml) VZV

Answered examples (8):
1. COc1cc(OC)c(NC(=S)Nc2ccc(NC(=O)c3ccc(Cl)o3)cc2)cc1Cl [Example 163] :: >10 µg/mL
2. Nc1cccc(NC(=S)Nc2ccc(NC(=O)c3ccco3)cc2)c1 [Example 430] :: >10 µg/mL
3. Cc1ccc(CCNC(=S)Nc2ccc(NC(=O)c3ccco3)cc2)cc1 [Example 605] :: 10 µg/mL
4. CN(C)CCSCC(=O)Nc1ccc(NC(=S)Nc2ccc(NC(=O)c3ccco3)cc2)cc1Cl [Example 396] :: >10 µg/mL
5. O=C(Nc1ccc(NC(=S)NCCc2cc(F)cc(C(F)(F)F)c2)cc1)c1csnn1 [Example 762] :: 1.5 µg/mL
6. O=C(Nc1ccc(NC(=S)NCCc2ccc(Br)cc2)cc1)c1csnn1 [Example 606] :: >10 µg/mL
7. CN(C)c1cccc(NC(=S)Nc2ccc(NC(=O)c3csnn3)cc2)c1 [Example 479] :: >10 µg/mL
8. CC(NC(=S)Nc1ccc(NC(=O)c2c[nH]cn2)cc1)c1ccc(F)cc1 (centres unmarked) [Example 863] :: >7.5 µg/mL

Value of IC50 (ug/ml) VZV reported for the molecule COc1cc(OC)c(NC(=S)Nc2ccc(NC(=O)c3occc3C)cc2)cc1Cl [Example 167] is 3.8 µg/mL

Value of IC50 (ug/ml) VZV reported for the molecule O=C(Nc1ccc(NC(=S)NCc2cc(F)cc(F)c2)cc1)c1csnn1 [Example 581] is >10 µg/mL

Value of IC50 (ug/ml) VZV reported for the molecule O=C(Nc1ccc(NC(=S)Nc2ccc(Br)c(C(F)(F)F)c2)cc1)c1csnn1 [Example 548] is >lo

Value of IC50 (ug/ml) VZV reported for the molecule COc1cc(OC)c(NC(=S)Nc2ccc(NC(=O)c3sccc3Br)cc2)cc1Cl [Example 175] is >10 µg/mL

Value of IC50 (ug/ml) VZV reported for the molecule O=C(Nc1ccc(NC(=S)NCCc2ccccc2)cc1)c1ccco1 [Example 574] is >10 µg/mL

###

Test system: VZV strain Ellen
Experiment: VZV Antiviral (ELISA) assay
Type: cell-based
Conditions: VZV strain Ellen in HFF cells
IC50 (ug/ml) VZV values, listed per item
I only need the number, in µg/mL, no unit after it.

Answered examples (3):
1. CC(NC(=S)Nc1ccc(NC(=O)c2ccco2)cc1)c1ccc(F)cc1 (centres unmarked) :: 2
2. CC(NC(=S)Nc1ccc(NC(=O)c2ccncc2)cc1)c1ccc(F)cc1 (centres unmarked) :: 2
3. CC(NC(=S)Nc1ccc(NC(=O)c2cscn2)cc1)c1ccc(C(F)(F)F)c(F)c1 (centres unmarked) :: 1.82

Now look at this one.
Value of IC50 (ug/ml) VZV reported for the molecule O=C(Nc1ccc(NC(=S)NCCCc2ccccc2)cc1)c1ccco1 is 1

###

Tested on: HSV-1
Experiment: HSV Antiviral (ELISA) assay
Assay type: cell-based
Conditions: HSV-1 in Vero cells
Quantity: IC50 (ug/ml) HSV

Answered examples (5):
1) CC(NC(=S)Nc1ccc(NC(=O)c2ccco2)cc1)c1ccc(F)cc1 (centres unmarked) :: >10 µg/mL
2) COc1c(Cl)cc(NC(=S)Nc2ccc(NC(=O)c3csnn3)cc2)cc1Cl :: >10 µg/mL
3) Cc1nc2cc(NC(=S)Nc3ccc(NC(=O)c4ccco4)cc3)ccc2[nH]1 :: >10 µg/mL
4) CN1CCC(N(C)c2ccc(NC(=S)Nc3ccc(NC(=O)c4ccccn4)cc3)cc2Cl)CC1 :: 3 µg/mL
5) Cc1cc(CCNC(=S)Nc2ccc(NC(=O)c3csnn3)cc2)ccc1N(C)C :: 6 µg/mL

Value sought: IC50 (ug/ml) HSV, system HSV-1, item O=C(Nc1ccc(NC(=S)Nc2ccc(Cl)c(Cl)c2)cc1)c1cscn1 . Result: >10 µg/mL

Value sought: IC50 (ug/ml) HSV, system HSV-1, item CC(C)Cc1cc(NC(=S)Nc2ccc(NC(=O)c3csnn3)cc2)cc(C(F)(F)F)c1 . Result: >10 µg/mL

Value sought: IC50 (ug/ml) HSV, system HSV-1, item CC(C)(NC(=S)Nc1ccc(NC(=O)c2csnn2)cc1)c1ccccc1 . Result: 9 µg/mL
